Test system: Human immunodeficiency virus
ASSAY NAME: Antiviral activity against HIV
Assay type: functional, organism-based
CONDITION NOTES: Human immunodeficiency virus 1
Listed molecules paired with reported EC50

MOLECULE: COc1c2c(cc3c1-c1c(cc4c(c1OC)OCO4)[C@H](OC(=O)c1ccccc1)[C@@](C)(O)[C@@H](C)C3)OCO2
EC50: 0.5 µg/mL
--
MOLECULE: CC(=O)O[C@@H]1[C@H](OC(=O)CC(C)C)c2c(ccc3ccc(=O)oc23)OC1(C)C
EC50: 1300 nM
--
MOLECULE: Cc1cc(=O)oc2c3c(ccc12)OC(C)(C)[C@H](OC(=O)C12CCC(C)(C(=O)O1)C2(C)C)[C@@H]3OC(=O)C12CCC(C)(C(=O)O1)C2(C)C (stereo not given in full)
EC50: 0.00016 nM
--
MOLECULE: COc1c2c(cc3c1-c1c(cc4c(c1OC)OCO4)C[C@H](C)[C@H](C)C3)OCO2
EC50: 1.2 µg/mL
--
MOLECULE: COc1cc2c(c(OC)c1OC)-c1c(cc3c(c1OC)OCO3)[C@H](OC(=O)c1ccccc1)[C@@](C)(O)[C@@H](C)C2
EC50: 0.006 µg/mL

----------
Test system: Human immunodeficiency virus
ASSAY NAME: Antiviral activity against HIV
Type: functional, organism-based
CONDITION NOTES: Human immunodeficiency virus 1
PARAMETER MEASURED: EC50

COMPOUND: CC1(C)CC[C@]2(C(=O)O)CC[C@]3(C)C(=CC[C@@H]4[C@@]5(C)CC[C@H](OC(=O)CC(C)(C)C(=O)O)C(C)(C)[C@@H]5CC[C@]43C)[C@H]2C1
SYSTEM TESTED: Human immunodeficiency virus
READING: 0.0039 µg/mL

COMPOUND: CC1(C)Oc2ccc3ccc(=O)oc3c2[C@@H](OC(=O)C23CCC(C)(C(=O)O2)C3(C)C)[C@H]1OC(=O)C12CCC(C)(C(=O)O1)C2(C)C (stereo partly specified)
SYSTEM TESTED: Human immunodeficiency virus
READING: 0.4 nM

COMPOUND: CC1(C)C=C2[C@H]3CC[C@@H]4[C@@]5(C)CCC(=O)C(C)(C)[C@@H]5CC[C@@]4(C)[C@]3(C)CC[C@@]2(C(=O)O)CC1
SYSTEM TESTED: Human immunodeficiency virus
READING: < 0.1 µg/mL

COMPOUND: C=C(C)[C@@H]1CC[C@]2(C(=O)O)CC[C@]3(C)[C@H](CC[C@@H]4[C@@]5(C)CC[C@H](OC(=O)CC(C)(C)C(=O)O)C(C)(C)[C@@H]5CC[C@]43C)[C@@H]12
SYSTEM TESTED: Human immunodeficiency virus
READING: < 0.35 nM

COMPOUND: COc1cc2c(c(OC)c1OC)-c1c(cc3c(c1OC)OCO3)C[C@@H](C)[C@@H](C)C2
SYSTEM TESTED: Human immunodeficiency virus
READING: 0.8 µg/mL

COMPOUND: CC1(C)CC[C@]2(C(=O)O)CC[C@]3(C)C(=CC[C@@H]4[C@@]5(C)CC[C@H](O)C(C)(C)[C@@H]5CC[C@]43C)[C@@H]2C1
SYSTEM TESTED: Human immunodeficiency virus
READING: 1.7 µg/mL

----------
Items are presented alongside their recorded IC50.
ASSAY NAME: Inhibition of tubulin polymerization
PARAMETER MEASURED: IC50 (nM)

ENTRY SMILES: COc1cc2c(c(OC)c1OC)-c1ccc(SC)c(=O)cc1[C@@H](OC(C)=O)CC2
UNIT ABBREV: nM
READING: 560

ENTRY SMILES: COc1cc2c(c(OC)c1OC)-c1ccc(SC)c(=O)cc1[C@@H](O)CC2
UNIT ABBREV: nM
READING: 560

ENTRY SMILES: COc1cc2c(c(OC)c1OC)-c1ccc(SC)c(=O)cc1C(=O)CC2
UNIT ABBREV: nM
READING: 560

ENTRY SMILES: COc1cc2c(c(OC)c1OC)-c1ccc(OC)c(=O)cc1[C@@H](NC(C)=O)CC2
UNIT ABBREV: nM
READING: 650

ENTRY SMILES: COc1cc2c(c(OC)c1OC)-c1ccc(SC)c(=O)cc1[C@@H](OC(=O)c1ccncc1)CC2
UNIT ABBREV: nM
READING: 560
